Every entry's value here was drawn from ChEMBL document CHEMBL3120104.

Entries and their CC50 at 72 h values follow.
- method notes: Cytotoxicity against human HuH7 cells after 3 days by fluorescence assay
- Type: cell-based
- study conditions: Huh-7 cells
recorded metric: CC50 at 72 h

compound	recorded metric	measured result
CC(C)OC(=O)[C@H](C)NP(=O)(OC[C@H]1O[C@@](C#N)(c2ccc3c(N)ncnn23)[C@](C)(O)[C@@H]1OC(=O)C(C)C)Oc1ccccc1 (stereo partly drawn)	CC50 at 72 h	47 µM
C[C@H](NP(=O)(OC[C@H]1O[C@@](C#N)(c2ccc3c(N)ncnn23)[C@](C)(O)[C@@H]1O)Oc1ccccc1)C(=O)OCc1ccccc1 (stereo partly drawn)	CC50 at 72 h	63 µM
C[C@H](NP(=O)(OC[C@H]1O[C@@](C#N)(c2ccc3c(N)ncnn23)[C@](C)(O)[C@@H]1O)Oc1ccccc1)C(=O)OC(C)(C)C (stereo partly drawn)	CC50 at 72 h	> 89 µM

###

Each entry below carries its reported solubility.
- method notes: Aqueous solubility of the compound in phosphate buffer at pH 7 by reverse-phase UPLC-UV method
- Assay type: physicochemical

compound	solubility
CCOC(=O)[C@H](C)NP(=O)(OC[C@H]1O[C@@](C#N)(c2ccc3c(N)ncnn23)[C@](C)(O)[C@@H]1O)Oc1ccccc1 (stereo partly specified)	108 µg/mL
CC[C@@H](C)OC(=O)[C@H](C)NP(=O)(OC[C@H]1O[C@@](C#N)(c2ccc3c(N)ncnn23)[C@](C)(O)[C@@H]1O)Oc1ccccc1 (stereo partly specified)	151 µg/mL
CC(C)OC(=O)[C@H](C)NP(=O)(OC[C@H]1O[C@@](C#N)(c2ccc3c(N)ncnn23)[C@](C)(O)[C@@H]1O)Oc1ccccc1 (stereo partly specified)	306 µg/mL
C[C@H](NP(=O)(OC[C@H]1O[C@@](C#N)(c2ccc3c(N)ncnn23)[C@](C)(O)[C@@H]1O)Oc1ccccc1)C(=O)OCc1ccccc1 (stereo partly specified)	0.05 µg/mL
CC[C@H](C)OC(=O)[C@H](C)NP(=O)(OC[C@H]1O[C@@](C#N)(c2ccc3c(N)ncnn23)[C@](C)(O)[C@@H]1O)Oc1ccccc1 (stereo partly specified)	200 µg/mL
CCC(CC)COC(=O)[C@H](C)NP(=O)(OC[C@H]1O[C@@](C#N)(c2ccc3c(N)ncnn23)[C@](C)(O)[C@@H]1O)Oc1ccccc1 (stereo partly specified)	1.8 µg/mL

###

- method notes: Cytotoxicity against human HuH7 cells after 3 days by fluorescence assay
- Type: cell-based
- study conditions: Huh-7 cells
CC50 at 72 h for assorted compounds

compound	CC50 at 72 h
CCC(CC)COC(=O)[C@H](C)NP(=O)(OC[C@H]1O[C@@](C#N)(c2ccc3c(N)ncnn23)[C@](C)(O)[C@@H]1O)Oc1ccccc1 (stereo partly specified)	35 µM
CC(C)OC(=O)[C@H](C)NP(=O)(OC[C@H]1O[C@@](C#N)(c2ccc3c(N)ncnn23)[C@]2(C)OC(=O)O[C@H]12)Oc1ccccc1 (stereo partly specified)	> 89 µM
CC(C)OC(=O)[C@H](C)NP(=O)(OC[C@H]1O[C@@](C#N)(c2ccc3c(N)ncnn23)[C@](C)(O)[C@@H]1O)Oc1ccccc1 (stereo partly specified)	> 89 µM
COC(=O)[C@H](C)NP(=O)(OC[C@H]1O[C@@](C#N)(c2ccc3c(N)ncnn23)[C@](C)(O)[C@@H]1O)Oc1ccccc1 (stereo partly specified)	> 89 µM
C[C@H](NP(=O)(OC[C@H]1O[C@@](C#N)(c2ccc3c(N)ncnn23)[C@](C)(O)[C@@H]1O)Oc1ccccc1)C(=O)OCC(C)(C)C (stereo partly specified)	85 µM
CCOC(=O)[C@H](C)NP(=O)(OC[C@H]1O[C@@](C#N)(c2ccc3c(N)ncnn23)[C@](C)(O)[C@@H]1O)Oc1ccccc1 (stereo partly specified)	> 89 µM

###

Quick reference for AUC(0-inf) among some compounds
- method notes: AUC (0 to infinity) in jagular vein cannulated beagle dog at 0.5 mg/kg, iv by LC/MS/MS analysis
- Assay type: ADME, organism-based, Canis lupus familiaris
- Design: time infinity, dose 0.5 mg/kg, route intravenous
- study conditions: plasma
recorded metric: AUC(0-inf) (µM·h)

compound	measured result
CC(C)OC(=O)[C@H](C)NP(=O)(OC[C@H]1O[C@@](C#N)(c2ccc3c(N)ncnn23)[C@](C)(O)[C@@H]1O)Oc1ccccc1 (stereo not given in full)	0.16
CC[C@H](C)OC(=O)[C@H](C)NP(=O)(OC[C@H]1O[C@@](C#N)(c2ccc3c(N)ncnn23)[C@](C)(O)[C@@H]1O)Oc1ccccc1 (stereo not given in full)	0.12
CCC(CC)COC(=O)[C@H](C)NP(=O)(OC[C@H]1O[C@@](C#N)(c2ccc3c(N)ncnn23)[C@](C)(O)[C@@H]1O)Oc1ccccc1 (stereo not given in full)	0.02
C[C@H](NP(=O)(OC[C@H]1O[C@@](C#N)(c2ccc3c(N)ncnn23)[C@](C)(O)[C@@H]1O)Oc1ccccc1)C(=O)OCC(C)(C)C (stereo not given in full)	0.09
CC[C@@H](C)OC(=O)[C@H](C)NP(=O)(OC[C@H]1O[C@@](C#N)(c2ccc3c(N)ncnn23)[C@](C)(O)[C@@H]1O)Oc1ccccc1 (stereo not given in full)	0.14

###

Below, each of the compounds is paired with its reported Cmax value.
- Test system: Syrian golden hamster
- method notes: Cmax in golden syrian hamster assessed as liver triphosphate level at 5 mg/kg, po by LC/MS/MS analysis
- Assay type: ADME, organism-based, Mesocricetus auratus
- Set-up: dose 5 mg/kg, route oral
- study conditions: in vivo
recorded metric: Cmax (nM)

compound	measured result
CC(C)OC(=O)[C@H](C)NP(=O)(OC[C@H]1O[C@@](C#N)(c2ccc3c(N)ncnn23)[C@]2(C)OC(=O)O[C@H]12)Oc1ccccc1 (stereo partly specified)	590
C[C@H](NP(=O)(OC[C@H]1O[C@@](C#N)(c2ccc3c(N)ncnn23)[C@](C)(O)[C@@H]1O)Oc1ccccc1)C(=O)OCc1ccccc1 (stereo partly specified)	860
C[C@H](NP(=O)(OC[C@H]1O[C@@](C#N)(c2ccc3c(N)ncnn23)[C@](C)(O)[C@@H]1O)Oc1ccccc1)C(=O)OC1CCCC1 (stereo partly specified)	840
COC(=O)[C@H](C)NP(=O)(OC[C@H]1O[C@@](C#N)(c2ccc3c(N)ncnn23)[C@](C)(O)[C@@H]1O)Oc1ccccc1 (stereo partly specified)	290
CC[C@@H](C)OC(=O)[C@H](C)NP(=O)(OC[C@H]1O[C@@](C#N)(c2ccc3c(N)ncnn23)[C@](C)(O)[C@@H]1O)Oc1ccccc1 (stereo partly specified)	1870
CC(C)OC(=O)[C@H](C)NP(=O)(OC[C@H]1O[C@@](C#N)(c2ccc3c(N)ncnn23)[C@](C)(O)[C@@H]1OC(=O)C(C)C)Oc1ccccc1 (stereo partly specified)	3670
CCC(CC)COC(=O)[C@H](C)NP(=O)(OC[C@H]1O[C@@](C#N)(c2ccc3c(N)ncnn23)[C@](C)(O)[C@@H]1O)Oc1ccccc1 (stereo partly specified)	2260
C[C@H](NP(=O)(OC[C@H]1O[C@@](C#N)(c2ccc3c(N)ncnn23)[C@](C)(O)[C@@H]1O)Oc1ccccc1)C(=O)OCC(C)(C)C (stereo partly specified)	1440
CCOC(=O)[C@H](C)NP(=O)(OC[C@H]1O[C@@](C#N)(c2ccc3c(N)ncnn23)[C@](C)(O)[C@@H]1O)Oc1ccccc1 (stereo partly specified)	570
CC(C)OC(=O)[C@H](C)NP(=O)(OC[C@H]1O[C@@](C#N)(c2ccc3c(N)ncnn23)[C@](C)(O)[C@@H]1O)Oc1ccccc1 (stereo partly specified)	530
CC[C@H](C)OC(=O)[C@H](C)NP(=O)(OC[C@H]1O[C@@](C#N)(c2ccc3c(N)ncnn23)[C@](C)(O)[C@@H]1O)Oc1ccccc1 (stereo partly specified)	1270
